Tested on: ATP;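 also: ATP exposure 15 min at 22 °C before imaging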
Experiment: switch fluorescence ratio, 500 uM ATP over buffer (Cy3 cluster intensity, sum of 5 cycles each) (fold (ratio)); higher = stronger signal-on switching upon ATP binding; sequences stand for … in TCGTCGGCAGCGTCAGATGTGTATAAGAGACAGTTTTTTTTTTTTTTTTTTTTTTTTT…TC
Settings: aptamer strand: ATP DNA aptamer (quencher-CACCTGGGGGAGTATTGCGGAGGAAGG + anchor), 100 nM annealed; ATP concentration: 500 uM
experimental-endpoint: switch fluorescence ratio
One number for each entry.

Consider the reported switch fluorescence ratio for these sequences:
INSERT INTO measurements (sequence_string, experimental_result) VALUES
  ('TCTGTGCATA', 1.52),
  ('TATATGCTGT', 0.98),
  ('GGGGGGCTAG', 1),
  ('CCAACAGCCC', 1.12);

Batch lookup, switch fluorescence ratio per entry.
1. GAGATTGCGT
2. GGTCTTGGCA

Reply:
1.01
0.985
